Test system: U251 CNS
experimentDescription: NCI tumour cell line growth inhibition, 48 h
testReadout: GI50

[[record]]
smilesdata = "CCC(=O)O[C@H]1CC[C@H]2[C@@H]3CC[C@H]4CC(=O)[C@H](C)C[C@]4(C)[C@H]3CC[C@]12C"
testreadout = "GI50"
resultvalue = "34 µM"

[[record]]
smilesdata = "O=C([CH-]C(=O)c1ccccc1)c1ccccc1.O=C([CH-]C(=O)c1ccccc1)c1ccccc1.O=C([CH-]C(=O)c1ccccc1)c1ccccc1.[Nd+3].[OH3+]"
testreadout = "GI50"
resultvalue = "9.22 µM"

[[record]]
smilesdata = "COc1ccc(-c2nc3sc(-c4ccc(Cl)cc4)cn3n2)cc1"
testreadout = "GI50"
resultvalue = "1.03 µM"

[[record]]
smilesdata = "COc1ccc2c(c1)C(=O)c1c-2n(CCCN=[N+]=[N-])c(=O)c2cc(N(C)C)ccc12"
testreadout = "GI50"
resultvalue = "19.5 µM"

[[record]]
smilesdata = "C1C[OH+]CC[OH+]CCNCC[OH+]CC[OH+]CCN1.[Cl-].[Pt+4]"
testreadout = "GI50"
resultvalue = "> 100 µM"

[[record]]
smilesdata = "COc1ccc2c(c1)/C(=C\\c1cccnc1)C(=O)N2"
testreadout = "GI50"
resultvalue = "7.84 µM"

[[record]]
smilesdata = "O=C(Nc1ccc(F)cc1)c1ccc(NC2=C(Cl)C(=O)N(Cc3ccccc3)C2=O)cc1"
testreadout = "GI50"
resultvalue = "11 µM"

[[record]]
smilesdata = "COc1ccc(Nc2ncc(Br)c(NCCCNC(=O)C3CCC3)n2)cc1"
testreadout = "GI50"
resultvalue = "12.4 µM"

[[record]]
smilesdata = "Cc1c(S(C)(=O)=O)c(-c2cc(F)cc(N3CCN(c4ccc(NS(=O)(=O)c5ccc(N[C@H](CCN6CCC(C(=O)OCCCP(=O)(O)O)CC6)CSc6ccccc6)c(S(=O)(=O)C(F)(F)F)c5)cc4)CC3)c2)c(-c2ccc(Cl)cc2)n1C(C)C"
testreadout = "GI50"
resultvalue = "> 100 µM"

[[record]]
smilesdata = "Cc1cc(/C=C\\c2ccc3ccccc3[n+]2C)c(O)c2ncccc12"
testreadout = "GI50"
resultvalue = "0.537 µM"

[[record]]
smilesdata = "O=C1c2ccc([N+](=O)[O-])cc2-c2c1c1ccccc1c(=O)n2CCCNCCCNCCCn1c2c(c3ccc([N+](=O)[O-])cc3c1=O)C(=O)c1ccccc1-2"
testreadout = "GI50"
resultvalue = "3.42 µM"

[[record]]
smilesdata = "COc1ccc(-c2cc(=O)c3c(C)cc(C)nc3[nH]2)cc1"
testreadout = "GI50"
resultvalue = "90.7 µM"


* * *

System: OVCAR-5 ovarian
experimentDescription: NCI tumour cell line growth inhibition, 48 h; in the data active = GI50 below about 0.43 µM; inactive = the rest
Possible outcomes: true = active, false = inactive

[[record]]
compound = "Cc1c(S(C)(=O)=O)c(-c2cc(F)cc(N3CCN(c4ccc(NS(=O)(=O)c5ccc(N[C@H](CCN6CCC(C(=O)OCCCP(=O)(O)O)CC6)CSc6ccccc6)c(S(=O)(=O)C(F)(F)F)c5)cc4)CC3)c2)c(-c2ccc(Cl)cc2)n1C(C)C"
assignedlabel = "false"

[[record]]
compound = "COc1ccc(N2Cc3cnc(Nc4ccccc4)nc3N([C@@H]3CC[C@@H](O)C3)C2=O)cc1"
assignedlabel = "false"

[[record]]
compound = "O=C(/C=C/C12c3ccccc3C(c3ccccc31)C1C(=O)N(c3ccccc3)C(=O)C12)c1ccccc1 (configuration not stated)"
assignedlabel = "false"

[[record]]
compound = "COc1ccc2c(c1)C(=O)c1c-2n(CCCN=[N+]=[N-])c(=O)c2cc(N(C)C)ccc12"
assignedlabel = "false"

[[record]]
compound = "C1C[OH+]CC[OH+]CCNCC[OH+]CC[OH+]CCN1.[Cl-].[Pt+4]"
assignedlabel = "false"

[[record]]
compound = "O=Nc1c(-c2c(O)[nH]c3ccc([N+](=O)[O-])cc23)[nH]c2ccc(O)cc12"
assignedlabel = "false"

[[record]]
compound = "CC1(C)CC[C@H](Nc2ncc(C(F)(F)F)c(-c3c[nH]c4c(P(C)(C)=O)c(C#N)ccc34)n2)CN1"
assignedlabel = "true"

[[record]]
compound = "Oc1ccc(C(c2ccc(O)cc2)c2ccc(Cl)cn2)cc1"
assignedlabel = "false"

[[record]]
compound = "CCN(CC)CCNc1ccc([N+](=O)[O-])c2sc3ccccc3c(=O)c12"
assignedlabel = "false"

[[record]]
compound = "COc1cc2c(c(OC)c1OC)-c1ccc(N)c(=O)cc1[C@@H](NC(C)=O)CC2"
assignedlabel = "true"

[[record]]
compound = "O=C1C(c2c[nH]c3ccccc23)=C(c2c[nH]c3ccccc23)C(=O)N1O"
assignedlabel = "false"

[[record]]
compound = "CCC(=O)O[C@H]1CC[C@H]2[C@@H]3CC[C@H]4CC(=O)[C@H](C)C[C@]4(C)[C@H]3CC[C@]12C"
assignedlabel = "false"

[[record]]
compound = "CN(C)c1ccc([O-])cc1.CN(C)c1ccc([O-])cc1.CN(C)c1ccc([O-])cc1.CN(C)c1ccc([O-])cc1.[Ti+4]"
assignedlabel = "false"

[[record]]
compound = "Cc1ccc(S(=O)(=O)NCCNC2=CC(=O)c3nc4ccccc4c4ccnc2c34)cc1"
assignedlabel = "false"

[[record]]
compound = "COc1ccc(-c2nc3sc(-c4ccc(Cl)cc4)cn3n2)cc1"
assignedlabel = "false"

[[record]]
compound = "CN1CCN(c2ccc(NC(=O)c3nc4ccc5[nH]ncc5c4c4c3CCCC4)cc2C(F)(F)F)CC1"
assignedlabel = "false"

[[record]]
compound = "O=C([CH-]C(=O)c1ccccc1)c1ccccc1.O=C([CH-]C(=O)c1ccccc1)c1ccccc1.O=C([CH-]C(=O)c1ccccc1)c1ccccc1.[Nd+3].[OH3+]"
assignedlabel = "false"


* * *

System: UACC-62 melanoma
experimentDescription: NCI tumour cell line growth inhibition, 48 h
log10 of TGI overview
testReadout: log10 of TGI (log10 of the value in µM)

[[record]]
compound = "Cc1cc(/C=C\\c2ccc3ccccc3[n+]2C)c(O)c2ncccc12"
resultvalue = 0.42

[[record]]
compound = "Cc1ccc(/C(=N\\N=C(N)N)c2ccccc2)cc1"
resultvalue = 1.20

[[record]]
compound = "O=C1C=CC=CC2CC=C[C@@H](O)C12 (stereo not given in full)"
resultvalue = 1.59

[[record]]
compound = "C[C@H](NC(=O)[C@@H]1CSSC[C@@H](NC(=O)c2nc3ccccc3cc2O)C(=O)NCC(=O)N1C)c1ccccc1"
resultvalue = 1.12

[[record]]
compound = "O=Nc1c(-c2c(O)[nH]c3ccc([N+](=O)[O-])cc23)[nH]c2ccc(O)cc12"
resultvalue = -0.36

[[record]]
compound = "Cc1ccncc1.F[B-](F)(F)F.[Pt+2].c1ccc(-c2cccc(-c3ccccn3)n2)nc1"
resultvalue = 1.56

[[record]]
compound = "O=[N+]([O-])c1ccc(S(=O)Cc2ccccc2)c([N+](=O)[O-])c1 (stereo not given)"
resultvalue = 0.95


* * *

Test system: UO-31 renal
experimentDescription: NCI tumour cell line growth inhibition, 48 h; in the data active = GI50 below about 0.43 µM; inactive = the rest
Classes used: yes (active), no (inactive)

[[record]]
molecule = "C[C@H](NC(=O)[C@@H]1CSSC[C@@H](NC(=O)c2nc3ccccc3cc2O)C(=O)NCC(=O)N1C)c1ccccc1"
assignedlabel = "no"

[[record]]
molecule = "O=C1C(c2c[nH]c3ccccc23)=C(c2c[nH]c3ccccc23)C(=O)N1O"
assignedlabel = "no"

[[record]]
molecule = "Clc1ccc(N2N=C(c3cccc(Nc4ccncc4)c3)CC2c2ccc3c(c2)OCO3)cc1 (stereo unspecified)"
assignedlabel = "no"

[[record]]
molecule = "CC1(C)CC[C@H](Nc2ncc(C(F)(F)F)c(-c3c[nH]c4c(P(C)(C)=O)c(C#N)ccc34)n2)CN1"
assignedlabel = "yes"

[[record]]
molecule = "CN1CCN(c2ccc(NC(=O)c3nc4ccc5[nH]ncc5c4c4c3CCCC4)cc2C(F)(F)F)CC1"
assignedlabel = "no"

[[record]]
molecule = "COc1cc2c(c(OC)c1OC)-c1ccc(N)c(=O)cc1[C@@H](NC(C)=O)CC2"
assignedlabel = "no"

[[record]]
molecule = "COc1ccc2c(c1)C(=O)c1c-2n(CCCN=[N+]=[N-])c(=O)c2cc(N(C)C)ccc12"
assignedlabel = "no"

[[record]]
molecule = "COc1cc(CCN)c2c(c1OC)SSSSS2"
assignedlabel = "yes"

[[record]]
molecule = "NC1CCCCC1.[O]=[Ge].[O]=[Ge].[O]=[Ge][OH].[O]=[Ge][OH]"
assignedlabel = "no"

[[record]]
molecule = "CN(C)c1ccc([O-])cc1.CN(C)c1ccc([O-])cc1.CN(C)c1ccc([O-])cc1.CN(C)c1ccc([O-])cc1.[Ti+4]"
assignedlabel = "no"

[[record]]
molecule = "O=C1c2ccc([N+](=O)[O-])cc2-c2c1c1ccccc1c(=O)n2CCCNCCCNCCCn1c2c(c3ccc([N+](=O)[O-])cc3c1=O)C(=O)c1ccccc1-2"
assignedlabel = "no"

